Overview of reported self-splicing fitness (ln) across a group of sequences:
- Run description: self-splicing fitness, log relative to wild type (ln ratio); higher = more splicing; Tetrahymena group I intron in knt gene, E. coli kanamycin selection, DiMSum; sequences stand for … in CUCUCU…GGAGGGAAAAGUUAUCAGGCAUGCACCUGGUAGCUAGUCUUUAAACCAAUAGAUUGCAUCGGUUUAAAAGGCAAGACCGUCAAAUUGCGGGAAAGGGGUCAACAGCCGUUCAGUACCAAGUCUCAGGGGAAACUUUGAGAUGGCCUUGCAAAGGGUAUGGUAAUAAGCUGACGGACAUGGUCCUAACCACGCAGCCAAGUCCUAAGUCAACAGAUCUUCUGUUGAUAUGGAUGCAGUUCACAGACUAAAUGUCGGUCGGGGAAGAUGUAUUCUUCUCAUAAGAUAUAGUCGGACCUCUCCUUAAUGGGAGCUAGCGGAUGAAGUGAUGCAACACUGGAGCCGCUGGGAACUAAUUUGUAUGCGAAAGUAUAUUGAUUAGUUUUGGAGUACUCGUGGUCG;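 also: selection with 25 µg/mL kanamycin versus none on LB agar overnight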
- Conditions used: 37 °C
Give the value as a plain number.

Please review the following examples before continuing.
Item sequence: GCAUAGCAAUAUUACGGAGC
Value measured: -2.73
//
Item sequence: CCCUAGCAAUAUUACGCUUG
Value measured: -2.18
//
Item sequence: GUGCAGCAAUAUUACGGACU
Value measured: -0.884
//
Item sequence: GGCGAGCAAUAUUACGCUCU
Value measured: -2.06
//
Item sequence: GUAAAGCAAUAUUACGGUUU
Value measured: 0.0852
//
Item sequence: UAGGAGCAAUAUUACGCAAG
Value measured: -0.879

Recorded self-splicing fitness (ln) of "CACUAGCAAUAUUACGGCAU" , please.
-1.55

Recorded self-splicing fitness (ln) of "AUCGAGCAAUAUUACGCCUA" , please.
-2.39

Recorded self-splicing fitness (ln) of "UCAUAGCAAUAUUACGUGAU" , please.
-2.62

Recorded self-splicing fitness (ln) of "GUACAGCAAUAUUACGGAGG" , please.
-2.92

Recorded self-splicing fitness (ln) of "AGCCAGCAAUAUUACGCUCC" , please.
-2.51

====

- Run description: self-splicing fitness, log relative to wild type (ln ratio); higher = more splicing; Tetrahymena group I intron in knt gene, E. coli kanamycin selection, DiMSum; sequences stand for … in CUCUCU…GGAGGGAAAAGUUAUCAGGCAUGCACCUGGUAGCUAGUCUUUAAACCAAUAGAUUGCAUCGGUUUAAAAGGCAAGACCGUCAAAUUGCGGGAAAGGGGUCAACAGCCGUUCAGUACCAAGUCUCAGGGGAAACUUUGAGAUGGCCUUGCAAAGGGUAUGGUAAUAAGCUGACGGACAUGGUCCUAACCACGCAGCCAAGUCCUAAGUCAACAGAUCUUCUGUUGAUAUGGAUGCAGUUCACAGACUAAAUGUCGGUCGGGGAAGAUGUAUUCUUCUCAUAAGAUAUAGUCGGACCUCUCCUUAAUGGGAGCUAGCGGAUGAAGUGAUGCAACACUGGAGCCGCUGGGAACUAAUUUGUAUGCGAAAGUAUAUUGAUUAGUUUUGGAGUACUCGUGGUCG
- Conditions used: 37 °C
Overview of reported self-splicing fitness (ln) across a group of sequences:
Give the value as a plain number.

Please review the following examples before continuing.
Item sequence: UUACAGCAAUAUUACGUGAA
Value measured: -0.338

Item sequence: ACACAGCAAUAUUACGUUCG
Value measured: -1.13

Item sequence: GUCUAGCAAUAUUACGUCGA
Value measured: -0.957

Item sequence: UGCGAGCAAUAUUACGAAAU
Value measured: -2.65

Recorded self-splicing fitness (ln) of "AAAGAGCAAUAUUACGGUGU" , please.
-2.87

Recorded self-splicing fitness (ln) of "GAUAAGCAAUAUUACGUUGG" , please.
-2.87

Recorded self-splicing fitness (ln) of "CCAUAGCAAUAUUACGCCAC" , please.
-1.75

Recorded self-splicing fitness (ln) of "AAGGAGCAAUAUUACGCCCG" , please.
-1.01

====

- Run description: self-splicing fitness, log relative to wild type (ln ratio); higher = more splicing; Tetrahymena group I intron in knt gene, E. coli kanamycin selection, DiMSum; sequences stand for … in CUCUCU…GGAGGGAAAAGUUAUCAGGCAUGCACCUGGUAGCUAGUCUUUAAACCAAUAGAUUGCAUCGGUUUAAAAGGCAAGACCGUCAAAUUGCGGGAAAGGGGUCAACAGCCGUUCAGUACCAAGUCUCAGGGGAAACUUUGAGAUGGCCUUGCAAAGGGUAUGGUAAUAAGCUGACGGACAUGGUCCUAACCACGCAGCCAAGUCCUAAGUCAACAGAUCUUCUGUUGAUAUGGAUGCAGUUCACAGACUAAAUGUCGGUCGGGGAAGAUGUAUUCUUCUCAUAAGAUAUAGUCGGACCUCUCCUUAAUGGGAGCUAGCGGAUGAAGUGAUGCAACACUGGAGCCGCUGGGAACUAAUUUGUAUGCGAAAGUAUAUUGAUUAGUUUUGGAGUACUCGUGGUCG
- Conditions used: 30 °C
The label depends only on self-splicing fitness (ln): true if it is at least -2, false if it is smaller.

Recorded results for 6 sequences are shown here.
Item sequence: UCCGAGCAAUAUUACGCUGU
Label value: false
//
Item sequence: UACAAGCAAUAUUACGGAGA
Label value: false
//
Item sequence: UGUGAGCAAUAUUACGUUAA
Label value: false
//
Item sequence: CCCCAGCAAUAUUACGGACA
Label value: false
//
Item sequence: AUAGAGCAAUAUUACGCUCA
Label value: true
//
Item sequence: CAUAAGCAAUAUUACGCAAG
Label value: false

Is self-splicing fitness (ln) at least -2? Consider "UAUUAGCAAUAUUACGCUAG"
false

Is self-splicing fitness (ln) at least -2? Consider "CGAAAGCAAUAUUACGGUAU"
false

Is self-splicing fitness (ln) at least -2? Consider "CGGUAGCAAUAUUACGUAAG"
true

Is self-splicing fitness (ln) at least -2? Consider "UACCAGCAAUAUUACGGAGG"
false

Is self-splicing fitness (ln) at least -2? Consider "AUAGAGCAAUAUUACGGAGU"
true

====

- Run description: self-splicing fitness, log relative to wild type (ln ratio); higher = more splicing; Tetrahymena group I intron in knt gene, E. coli kanamycin selection, DiMSum; sequences stand for … in CUCUCU…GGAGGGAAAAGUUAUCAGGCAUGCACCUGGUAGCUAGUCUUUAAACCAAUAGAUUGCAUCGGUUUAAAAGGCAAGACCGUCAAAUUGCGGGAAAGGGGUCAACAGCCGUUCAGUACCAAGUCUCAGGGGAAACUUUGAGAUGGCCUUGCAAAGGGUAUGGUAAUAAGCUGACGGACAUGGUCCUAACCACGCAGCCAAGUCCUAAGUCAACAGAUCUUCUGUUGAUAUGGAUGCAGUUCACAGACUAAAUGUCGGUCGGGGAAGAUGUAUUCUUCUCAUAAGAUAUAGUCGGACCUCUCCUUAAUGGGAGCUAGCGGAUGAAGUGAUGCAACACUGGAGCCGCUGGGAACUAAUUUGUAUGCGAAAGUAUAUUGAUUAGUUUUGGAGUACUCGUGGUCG
- Conditions used: 30 °C
Overview of reported self-splicing fitness (ln) across a group of sequences:
Give the value as a plain number.

Please review the following examples before continuing.
Item sequence: CUUAAGCAAUAUUACGUCGG
Experimental readout: self-splicing fitness (ln)
Value measured: -1.66

Item sequence: GAUUAGCAAUAUUACGGACU
Experimental readout: self-splicing fitness (ln)
Value measured: -0.413

Item sequence: CAUCAGCAAUAUUACGAUCC
Experimental readout: self-splicing fitness (ln)
Value measured: -1.56

Item sequence: CCGUAGCAAUAUUACGGCAG
Experimental readout: self-splicing fitness (ln)
Value measured: -3.35

Item sequence: UACGAGCAAUAUUACGAGCA
Experimental readout: self-splicing fitness (ln)
Value measured: -2.48

Item sequence: GUGCAGCAAUAUUACGCUGC
Experimental readout: self-splicing fitness (ln)
Value measured: -2.77

Recorded self-splicing fitness (ln) of "UGUGAGCAAUAUUACGCCUC" , please.
-1.83

Recorded self-splicing fitness (ln) of "AUCUAGCAAUAUUACGCACC" , please.
-0.201

Recorded self-splicing fitness (ln) of "UUGCAGCAAUAUUACGGGUA" , please.
-1.76

Recorded self-splicing fitness (ln) of "GAUUAGCAAUAUUACGCACG" , please.
-1.36

Recorded self-splicing fitness (ln) of "GUUCAGCAAUAUUACGUUGU" , please.
-1.68

Recorded self-splicing fitness (ln) of "GACUAGCAAUAUUACGGGUC" , please.
-3.22

Recorded self-splicing fitness (ln) of "AUCUAGCAAUAUUACGACGG" , please.
-2.58

Recorded self-splicing fitness (ln) of "GAGCAGCAAUAUUACGUGCC" , please.
-1.58

Recorded self-splicing fitness (ln) of "GUUUAGCAAUAUUACGAUGC" , please.
-0.832

Recorded self-splicing fitness (ln) of "AUUGAGCAAUAUUACGAAGG" , please.
-2.69
